Exercise: state measured protein stability index for each of the variants provided.
B1: WSB1 (parent)
chain: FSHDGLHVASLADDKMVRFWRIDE

Variants of: B1
Assay: protein stability index of a GFP-peptide fusion (GPS, HEK-293T) (PSI 1-6); higher = more stable;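 further: lentivirally expressed fusions sorted by FACS into six bins by GFP to DsRed ratio, PSI derived from sequencing read proportions per bin multiplied by bin number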
Settings: c terminus: a fixed tail appended
Format: numeric value only, no unit, no commentary.

Give the measured protein stability index for `L11F`
2.5

Give the measured protein stability index for `G5V`
2.61

Give the measured protein stability index for `V8L`
1.53

Give the measured protein stability index for `G5P`
1.81

Give the measured protein stability index for `R18E`
1.92

Give the measured protein stability index for `R21A`
1.39

Give the measured protein stability index for `H3S`
3.07

Give the measured protein stability index for `W20L`
1.88

Give the measured protein stability index for `E24L`
2.85

Give the measured protein stability index for `D14H`
2.2

Give the measured protein stability index for `F1S`
3.33

Give the measured protein stability index for `S2R`
2.61

Give the measured protein stability index for `M16T`
1.16

Give the measured protein stability index for `L6F`
2.43

Give the measured protein stability index for `D23L`
2.35

Give the measured protein stability index for `I22T`
1.65

Give the measured protein stability index for `V17E`
2.75

Give the measured protein stability index for `D14I`
3.14

Give the measured protein stability index for `M16C`
2.98

Give the measured protein stability index for `H7L`
1

Give the measured protein stability index for `L11D`
2.06

Give the measured protein stability index for `F1M`
3.81

Give the measured protein stability index for `A12Q`
2.55
